# ASSAY_INFO: Metabolic stability in human liver microsomes assessed as clearance at 1 uM measured for 60 mins by LC-MS/MS analysis
# Assay type: ADME, Microsome
# REPORTED_CONDITIONS: read-out: CLH
ENDPOINT_LABEL: microsomal CLint at 1 µM (µL/min/mg)
Please state the figure in µL/min/mg; there is no need to write the unit.

Record excerpt, results attached:
{"MOLECULE": "[2H]C([2H])([2H])C([2H])([2H])[S+]([O-])c1ccccc1Nc1nc(Nc2cc(NC(=O)C=C)c(N(C)CCN(C)C)cc2OC)ncc1Cl (racemic)", "VALUE_MEASURED": 21.4}
{"MOLECULE": "[2H]C([2H])([2H])C([2H])([2H])[S+]([O-])c1cc(Cl)ccc1Nc1nc(Nc2cc(NC(=O)C=C)c(N(C)CCN(C)C)cc2OC)ncc1Cl (stereo not given)", "VALUE_MEASURED": 68.7}
{"MOLECULE": "C=CC(=O)Nc1cc(Nc2ncc(Cl)c(Nc3cccc(F)c3[S+]([O-])CC)n2)c(OC)cc1N(C)CCN(C)C (stereo not given)", "VALUE_MEASURED": 15.5}
{"MOLECULE": "[2H]C([2H])([2H])C([2H])([2H])[S+]([O-])c1c(F)cccc1Nc1nc(Nc2cc(NC(=O)C=C)c(N(C)CCN(C)C)cc2OC)ncc1Cl (stereo not given)", "VALUE_MEASURED": 27.7}
{"MOLECULE": "C=CC(=O)Nc1cc(Nc2ncc(Cl)c(Nc3cccc(Cl)c3[S+]([O-])C(C)C)n2)c(OC)cc1N(C)CCN(C)C (stereo not given)", "VALUE_MEASURED": 92}

According to the records, this molecule [2H]C([2H])([2H])C([2H])([S+]([O-])c1ccccc1Nc1nc(Nc2cc(NC(=O)C=C)c(N(C)CCN(C)C)cc2OC)ncc1Cl)C([2H])([2H])[2H] (stereo not given) displays microsomal CLint at 1 µM of 109

Memo: C=CC(=O)Nc1cc(Nc2ncc(Cl)c(Nc3ccc(Cl)cc3[S+]([O-])C(C)C)n2)c(OC)cc1N(C)CCN(C)C (stereo not given) , reported microsomal CLint at 1 µM: 132

For record C=CC(=O)Nc1cc(Nc2ncc(Cl)c(Nc3cccc(F)c3[S+]([O-])C(C)C)n2)c(OC)cc1N(C)CCN(C)C (stereo not given) the listed microsomal CLint at 1 µM is 107

Looking up [2H]C([2H])([2H])C([2H])([S+]([O-])c1c(F)cccc1Nc1nc(Nc2cc(NC(=O)C=C)c(N(C)CCN(C)C)cc2OC)ncc1Cl)C([2H])([2H])[2H] (stereo not given) , I found its microsomal CLint at 1 µM recorded as 70.5

Reported microsomal CLint at 1 µM for C=CC(=O)Nc1cc(Nc2ncc(Cl)c(Nc3cccc(Cl)c3[S+]([O-])CC)n2)c(OC)cc1N(C)CCN(C)C (stereo not given) was 66.7

====

# ASSAY_INFO: Metabolic stability in human liver microsomes assessed as half life at 1 uM measured for 60 mins by LC-MS/MS analysis
# Format: ADME, Microsome
Lab note: anything with half-life at 1 µM at or over 50 min counts as Fulfilled; the rest go in Not fulfilled.

{"COMPOUND": "[2H]C([2H])([2H])C([2H])([2H])[S+]([O-])c1c(F)cccc1Nc1nc(Nc2cc(NC(=O)C=C)c(N(C)CCN(C)C)cc2OC)ncc1Cl (stereo not given)", "LABEL_CLASS": "Fulfilled"}

Tell me whether half-life at 1 µM is at least 50 min here: [2H]C([2H])([2H])C([2H])([S+]([O-])c1ccccc1Nc1nc(Nc2cc(NC(=O)C=C)c(N(C)CCN(C)C)cc2OC)ncc1Cl)C([2H])([2H])[2H] (stereo not given)
Not fulfilled

Hello, I need to know if C=CC(=O)Nc1cc(Nc2ncc(Cl)c(Nc3ccc(Cl)cc3[S+]([O-])C(C)C)n2)c(OC)cc1N(C)CCN(C)C (stereo not given) has measured half-life at 1 µM not below 50 min. Thanks!
Not fulfilled

Decide: is the reported value of half-life at 1 µM for C=CC(=O)Nc1cc(Nc2ncc(Cl)c(Nc3cccc(F)c3[S+]([O-])C(C)C)n2)c(OC)cc1N(C)CCN(C)C (stereo not given) equal to or greater than 50 min?
Not fulfilled

Hi team, for C=CC(=O)Nc1cc(Nc2ncc(Cl)c(Nc3cccc(F)c3[S+]([O-])CC)n2)c(OC)cc1N(C)CCN(C)C (stereo not given) , is the recorded half-life at 1 µM at or above 50 min?
Fulfilled

Hi, just wondering whether C=CC(=O)Nc1cc(Nc2ncc(Cl)c(Nc3cccc(Cl)c3[S+]([O-])CC)n2)c(OC)cc1N(C)CCN(C)C (stereo not given) shows half-life at 1 µM of 50 min or higher.
Fulfilled

Has C=CC(=O)Nc1cc(Nc2ncc(Cl)c(Nc3cccc(Cl)c3[S+]([O-])C(C)C)n2)c(OC)cc1N(C)CCN(C)C (stereo not given) a recorded half-life at 1 µM greater than or equal to 50 min?
Not fulfilled

Hello, I need to know if [2H]C([2H])([2H])C([2H])([2H])[S+]([O-])c1ccccc1Nc1nc(Nc2cc(NC(=O)C=C)c(N(C)CCN(C)C)cc2OC)ncc1Cl (racemic) has measured half-life at 1 µM not below 50 min. Thanks!
Fulfilled
